Source of measurements: patent US8669271B2

# assay.target: human GPR119 (Homo sapiens, UniProt Q8TDV5)
# Construct: expression vector for human GPR119 cDNA (Acc. No. NP_848566)
# Sequence (Q8TDV5 whole entry): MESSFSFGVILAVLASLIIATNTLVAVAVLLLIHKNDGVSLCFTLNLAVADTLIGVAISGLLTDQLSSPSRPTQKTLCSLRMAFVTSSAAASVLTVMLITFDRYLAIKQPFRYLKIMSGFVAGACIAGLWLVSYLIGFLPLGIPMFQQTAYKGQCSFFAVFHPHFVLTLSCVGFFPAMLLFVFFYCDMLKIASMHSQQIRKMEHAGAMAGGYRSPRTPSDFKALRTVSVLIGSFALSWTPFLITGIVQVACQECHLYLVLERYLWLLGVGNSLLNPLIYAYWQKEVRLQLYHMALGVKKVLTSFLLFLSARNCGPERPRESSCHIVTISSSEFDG
# experiment.summary: AlphaScreen cAMP assay in Min-6/hGPR119 cells (activation of GPR119, intracellular cAMP)
# experimental.context: MIN6 cells stably transfected with human GPR119; cAMP by AlphaScreen after 45 minutes incubation at room temperature
recorded.endpoint: EC50 (µM)

As a guide, the following entries are already answered.
| compound | assay.target | unit.string | EC50 |
| --- | --- | --- | --- |
| CC(=O)Nc1ccc(-c2cc3c(cn2)OC(C2CCN(C(=O)OC(C)(C)C)CC2)C3)cc1 (stereo not drawn) | human GPR119 (Homo sapiens, UniProt Q8TDV5) | µM | 0.013 |
| COCCN(C)C(=O)c1ccc(-c2ccc3c(c2)CC(C2CCN(C(=O)OC(C)C)CC2)O3)cc1 (stereo not drawn) | human GPR119 (Homo sapiens, UniProt Q8TDV5) | µM | 0.03 |
| CC(C)OC(=O)N1CCC(C2Cc3cc(-c4ccc(S(C)(=O)=O)cc4F)ccc3O2)CC1 (stereo not drawn) | human GPR119 (Homo sapiens, UniProt Q8TDV5) | µM | 0.042 |

[I] CC(C)(C)OC(=O)N1CCC(C2Cc3cc(-c4ccnc(C(F)(F)F)c4)ncc3O2)CC1 (stereo not drawn)
[II] CC(C)S(=O)(=O)N1CCN(c2cc3c(cn2)OC(C2CCN(C(=O)OC(C)(C)C)CC2)C3)CC1 (stereo not drawn)
[III] CC(C)(C)OC(=O)N1CCC(C2Cc3cc(-c4ccc(CS(C)(=O)=O)cc4F)ncc3O2)CC1 (stereo not drawn) [Example 35]
[IV] Cn1cc(-c2cc3c(cn2)OC(C2CCN(C(=O)OC(C)(C)C)CC2)C3)cn1 (stereo not drawn)
[V] CC(O)CCNC(=O)c1ccc(-c2ccc3c(c2)CC(C2CCN(C(=O)OC(C)C)CC2)O3)cc1 (stereo not drawn)
Prompt: Order the records by EC50, with each subsequent value no larger than the one before. Provide the ranking by listing each label in its place in the requested order.
Response: IV, I, V, II, III
(IV: 0.575 µM, I: 0.222 µM, V: 0.11 µM, II: 0.048 µM, III: 0.017 µM)

---

# assay.target: human GPR119 (Homo sapiens, UniProt Q8TDV5)
# Construct: expression vector for human GPR119 cDNA (Acc. No. NP_848566)
# experiment.summary: AlphaScreen cAMP assay in Min-6/hGPR119 cells (activation of GPR119, intracellular cAMP)
# experimental.context: MIN6 cells stably transfected with human GPR119; cAMP by AlphaScreen after 45 minutes incubation at room temperature
pEC50: −log10 of the molar value.
recorded.endpoint: pEC50

As a guide, the following entries are already answered.
| compound | assay.target | pEC50 |
| --- | --- | --- |
| CC(O)CNC(=O)Cc1ccc(-c2ccc3c(c2)CC(C2CCN(C(=O)OC(C)C)CC2)O3)cc1 (stereo not shown) | human GPR119 (Homo sapiens, UniProt Q8TDV5) | 6.80 |
| CC(C)(C)OC(=O)N1CCC([C@@H]2Cc3cc(-c4ccc(S(C)(=O)=O)cn4)ccc3O2)CC1 | human GPR119 (Homo sapiens, UniProt Q8TDV5) | 7.96 |
| CC(C)(C)OC(=O)N1CCC([C@@]2(C)Cc3cc(-c4ccc(S(C)(=O)=O)cc4)ncc3O2)CC1 | human GPR119 (Homo sapiens, UniProt Q8TDV5) | 6.76 |

[a] CC(C)OC(=O)N1CCC(C2Cc3cc(-c4ccc(C(=O)N(C)CC#N)cc4)ccc3O2)CC1 (stereo not shown)
[b] COC1CCN(C(=O)Cc2ccc(-c3ccc4c(c3)CC(C3CCN(C(=O)OC(C)C)CC3)O4)cc2)CC1 (stereo not shown)
[c] CC(C)OC(=O)N1CCC(C2Cc3cc(-c4ccc5c(cnn5C)c4)ccc3O2)CC1 (stereo not shown)
[d] CC(C)OC(=O)N1CCC(C2Cc3cc(-c4cccc(S(C)(=O)=O)c4)ccc3O2)CC1 (stereo not shown)
[e] CC1(OC(=O)N2CCC(C3Cc4cc(C5=CCN(S(C)(=O)=O)CC5)ncc4O3)CC2)CC1 (stereo not shown)
Prompt: Rank items: key pEC50, increasing. Provide the ranking by listing each label in its place in the requested order.
Response: d, c, b, a, e

[1] CC(C)OC(=O)N1CCC(C2Cc3cc(-c4ccc(CC(=O)N(C)CC#N)cc4)ccc3O2)CC1 (stereo not shown)
[2] CC1(OC(=O)N2CCC([C@]3(C)Cc4cc(-c5ccc(S(C)(=O)=O)cc5)ncc4O3)CC2)CC1
Prompt: Lab note: check whether 1 or 2 has the lower measured pEC50. // return label of chosen record
Response: 1
(1: 7.51, 2: 8.15)
